# Experimental system: Recombinant human deoxyuridine nucleotidohydrolase (dUTPase) (Homo sapiens, UniProt P33316)
# Sequence (P33316 1-164 isoform P33316-2): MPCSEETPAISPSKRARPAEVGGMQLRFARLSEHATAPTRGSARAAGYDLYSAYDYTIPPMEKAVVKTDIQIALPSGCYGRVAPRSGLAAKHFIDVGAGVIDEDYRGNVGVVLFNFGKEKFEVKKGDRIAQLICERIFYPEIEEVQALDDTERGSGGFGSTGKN
# Assay protocol: dUTPase inhibition, fluorescence-based DNA polymerase assay
Readout type: pIC50
Scale: negative log10 of molar concentration, which is what pIC50 denotes.

The recorded pIC50 for entry "O=C1CN(CCCC(=O)N2CCC[C@H]2C(O)(c2ccccc2)c2ccccc2)C(=O)N1" equals 6.00
